Tested on: HCT-116 colon
EXPERIMENT_NOTES: NCI-60 one-dose screen, 48 h (100 = growth as untreated, 0 = no growth, -100 = all killed)
CONDITION_LABEL: 10 µM unless noted
About 83,000 compounds went through this panel and 20% of them were active in at least one assay; those are over-represented in the sample as a whole.
OBSERVATION_TYPE: growth (%)

                                   compound  units  value
0  O=C(COc1ccc(NC(=O)Nc2ccc(Cl)c(Cl)c2)cc1)N=Nc1c(O)[nH]c2ccccc12      %  -1.24
1  Cn1cc(-c2nc(N)nnc2-c2c[nH]c3ccc(Br)cc23)c2cccnc21      %   21.2
2  c1ccc(-c2csc(Nc3cccc(Nc4nc(-c5ccccc5)cs4)c3)n2)cc1      %     40
3  NS(=O)(=O)c1ccc(N=Nc2c(O)n(CC(=O)Nc3ccccc3)c3ccccc23)cc1      %  -45.3
4  C=C1CCC2C3(C)COC(c4ccc(F)cc4)OC3CCC2(C)C1CC(O)C1=CCOC1=O (centres undefined)      %  -50.2
5  CCS(=O)(=O)N1CCCC(C(=O)Nc2nc3ccc(NC(=O)c4ccc(F)c(OC)c4F)cc3s2)C1 (centres undefined)      %     41
6  Cc1ccc(C2=NN(c3nc(-c4cc5ccccc5oc4=O)cs3)C(c3ccc(C)cc3)C2)cc1 (centres undefined)      %    110
7  CC12CC[C@@H]3[C@]4(C)COC(c5cn[nH]c5-c5cccc(Br)c5)O[C@@H]4CC[C@@]3(C)[C@@H]1CC(C1=CCOC1=O)O2 (some centres undefined)      %   15.3
8    N/C(=N\c1nc2ccccc2s1)NC(=O)Nc1ccccc1Br      %  -51.4

====

Quick list: growth per entry.
Tested on: TK-10 renal
EXPERIMENT_NOTES: NCI-60 one-dose screen, 48 h (100 = growth as untreated, 0 = no growth, -100 = all killed)
CONDITION_LABEL: 10 µM unless noted
Compounds without any hit were thinned out: in the full panel of roughly 83,000, 20% have a hit.
OBSERVATION_TYPE: growth (%)

>>> df
                                   compound  system_tested  observation_type  units  value
0        CCN(CC)C(=O)N/C(N)=N/c1nc2ccccc2s1    TK-10 renal            growth      %   53.7
1  C/C(=N\N=C1/C(=O)Nc2ccccc21)c1ccc2c(c1)Nc1ccccc1S2    TK-10 renal            growth      %   78.7
2   O=C1Nc2ccc([N+](=O)[O-])cc2C1=Nc1ccccc1    TK-10 renal            growth      %    111
3  O=c1[nH]c2ccccc2cc1CSc1nccc(-c2ccc3ccccc3c2)n1    TK-10 renal            growth      %     83
4  C=CC[N+](C)(C)CCn1c2ccccc2c2nc3cc(C)c(C)cc3nc21    TK-10 renal            growth      %    106
5      Nc1cc2ccccc2c(=O)n1NC(=O)c1ccc(I)cc1    TK-10 renal            growth      %    115
6  CCCCCCCS(=O)(=O)N1CCCC(C(=O)Nc2nc3ccc(NC(=O)c4ccc(F)c(OC)c4F)cc3s2)C1 (stereo not given)    TK-10 renal            growth      %   85.9
7    Cc1cc2nc3c4ccccc4n(CC4=NCCN4)c3nc2cc1C    TK-10 renal            growth      %   64.4
8  CCOC(=O)C1=C(N)N(c2ccccc2)C2=C(C(=O)CC(C)(C)C2)C1c1ccc([N+](=O)[O-])cc1 (stereo not given)    TK-10 renal            growth      %    113
9  COc1cc(-c2ccc(/C=N/NC(=O)c3[nH]c4ccc(Br)cc4c3-c3ccccc3)o2)cc(OC)c1OC    TK-10 renal            growth      %    112

====

Test system: SK-OV-3 ovarian
EXPERIMENT_NOTES: NCI-60 one-dose screen, 48 h (100 = growth as untreated, 0 = no growth, -100 = all killed)
CONDITION_LABEL: 10 µM unless noted
About 83,000 compounds went through this panel and 20% of them were active in at least one assay; those are over-represented in the sample as a whole.
Assign YES whenever growth does not fall below 60%; assign NO whenever it does.

COMPOUND	LABEL
CC(=O)Nc1ccc(-n2cnc3cc(-c4ccc(O)cc4)ccc32)cc1C(F)(F)F	NO
COc1cc(-c2ccc(/C=N/NC(=O)c3[nH]c4ccc(Br)cc4c3-c3ccccc3)o2)cc(OC)c1OC	YES
CCCCSc1nc(NCCc2c[nH]c3ccccc23)c(C#N)c(-c2ccc(F)cc2)n1	YES
CC(C)c1ccc2c(N)c(C(=O)Nc3ccc(C(F)(F)F)cn3)sc2n1	YES
CC(C)Sc1nc(NCCc2c[nH]c3ccccc23)c(C#N)c(-c2ccc(F)cc2)n1	YES
O=C(N/N=C/c1ccc(-c2ccc(O)cc2)s1)c1[nH]c2ccc(Br)cc2c1-c1ccccc1	NO
COc1cc2oc(-c3cccc(NC(=O)[C@H](Cc4ccccc4)NC(=O)OC(C)(C)C)c3)cc(=O)c2c(OC)c1OC	YES
COc1c(F)ccc(C(=O)Nc2ccc3nc(NC(=O)C4CCCN(S(=O)(=O)c5cccc(Cl)c5)C4)sc3c2)c1F (stereo unspecified)	YES
COc1ccc(-c2ccnc(SCc3cc4cc(OC)ccc4[nH]c3=O)n2)cc1	NO
Cc1c(C(=O)NNC(=O)c2ccc(Cl)cc2)nnn1-c1ccc(Br)cc1	YES
Clc1cccc(Cl)c1/C=C/c1cc(/C=C/c2ccc(Br)cc2)c2ccccc2n1	YES
Cn1cc(NC(=O)c2cc(NC(=O)c3ccc(C#Cc4ccccc4)cc3)cn2C)cc1C(=O)NCCCN1CCOCC1	YES
N/C(=N\c1nc2ccccc2s1)NC(=O)Nc1ccccc1Br	NO
CC(=O)Nc1cccc(-c2nc3cc(-c4ccc(O)cc4)ccc3n2C)c1	YES
C=CC[N+](C)(C)CCn1c2ccccc2c2nc3cc(C)c(C)cc3nc21	YES
COc1cc(/C=C2\C(=N)N=C(SCc3nc4ccccc4[nH]3)NC2=O)ccc1O	YES
COc1cc2oc(-c3cccc(C(=O)Nc4cccc([N+](=O)[O-])c4)c3)cc(=O)c2c(OC)c1OC	NO
O=C(Cn1c(/C=C/c2ccccc2)nc2ccccc2c1=O)Nc1ccc(Cl)cc1	NO
CN(C)c1ccnc(CNCCSC2(c3ccc(C(F)(F)F)cc3)c3ccccc3C=Cc3ccccc32)c1	NO
Cc1cc(C)n(-c2ccc3nnc(-c4ccccc4)n3n2)n1	YES
Cn1cc(-c2cc(N)n3nc(-c4c[nH]c5ccccc45)cc3n2)c2cccnc21	YES
O=C(COc1ccc(NC(=O)Nc2ccccc2)cc1)N=Nc1c(O)[nH]c2ccc([N+](=O)[O-])cc12	NO
COc1cc(CNC(=O)/C=C/c2ccc3c(c2)OCO3)ccc1OCc1cn(-c2ccc([N+](=O)[O-])cc2)nn1	YES
Cn1cc(-c2nc(N)nnc2-c2c[nH]c3ccc(F)cc23)c2cc(Br)cnc21	NO
CCN(CC)CCOc1ccc(Nc2ncc3cc(-c4ccc(O)c(C#N)c4)c(=O)n(C)c3n2)cc1	YES
CCCSc1nc(Nc2ccc(S(N)(=O)=O)cc2)c(C#N)c(-c2cc(OC)c(OC)c(OC)c2)n1	YES
CC12CC[C@@H]3[C@]4(C)COC(c5cn[nH]c5-c5ccc(Br)cc5)O[C@@H]4CC[C@@]3(C)[C@@H]1CC(C1=CCOC1=O)O2 (stereo partly specified)	YES
O=C(NNc1nc2cc(F)ccc2n2c(CN3CCCCC3)ccc12)c1cnccn1	NO
O=C(NNc1nc2cc(F)ccc2n2c(C(=O)N3CCN(C4CC4)CC3)ccc12)c1ncccn1	NO
COC(OC)C1=C(C)OC(N)=C(C#N)C12C(=O)Nc1ccccc12 (stereo unspecified)	YES
Cc1ccc([C@H]2C(C(=O)c3ccc(Cl)cc3)C3(N[C@@H]2c2ccccc2)C(=O)Nc2ccc(Br)cc23)cc1 (stereo partly specified)	YES
O=C1NC(=O)c2c1c1c3cc(Br)ccc3[nH]c1c1oc3ccc(F)cc3c21	NO
CC(=O)Oc1ccc(/C=C/C(=O)N[C@@H](Cc2ccccc2)C(O)C(=O)NCc2ccccc2)cc1OC(C)=O (stereo partly specified)	YES
COc1ccc(-c2cc(C(=O)NCc3ccccc3)nn2-c2ccc(S(C)(=O)=O)cc2)cc1OC	YES
CC1(C)CC[C@]2(C(=O)O)CC[C@]3(C)C(=CCC4[C@@]5(C)C[C@@H](O)[C@@H]6OC(c7ccccc7F)OC[C@@]6(C)C5CC[C@]43C)C2C1 (stereo partly specified)	NO

====

Test system: OVCAR-8 ovarian
EXPERIMENT_NOTES: NCI-60 one-dose screen, 48 h (100 = growth as untreated, 0 = no growth, -100 = all killed)
CONDITION_LABEL: 10 µM unless noted
This is part of a sample that, as a whole, favours compounds with a hit. Of some 83,000 tested, about 20% had one in any assay. Active and inactive are the calls of the source. The calls were made as follows: active = growth percent below 10; inactive = the rest.
Recorded growth for the following compounds
OBSERVATION_TYPE: growth

In [3]: df
Out[3]:
                                   compound    system_tested             value
0  COC(OC)C1=C(C)OC(N)=C(C#N)C12C(=O)Nc1ccccc12 (stereo not given)  OVCAR-8 ovarian  91.9% (inactive)
1  O=c1oc2ccccc2cc1-c1csc(N2N=C(c3ccccc3)CC2c2ccc(N3CCOCC3)cc2)n1 (stereo not given)  OVCAR-8 ovarian   104% (inactive)
2  COc1ccc(C2CC(c3ccc(S(=O)(=O)NCCNc4nc(Nc5ccc(F)cc5)nc(N(C)C)n4)cc3)=Nc3c(N)nc(N)nc3N2)cc1 (stereo not given)  OVCAR-8 ovarian  79.5% (inactive)
3  CCCCSc1nc(NCCc2c[nH]c3ccccc23)c(C#N)c(-c2ccc(OC)cc2)n1  OVCAR-8 ovarian  79.2% (inactive)
4   O=C1C(=Nc2ccc(F)c(Cl)c2)c2cccc3cccc1c23  OVCAR-8 ovarian    3.58% (active)
